Conditions: in toluene, 288.15 K
Readout name: solubility (mole fraction)
The reply should be a number, written without any unit.

// query Which value of solubility (mole fraction) has been reported for COc1cc2nc(Cl)nc(N)c2cc1OC in the records?
// result 5.1e-06

---

Conditions: in cyclohexanone, 278.15 K
Readout name: solubility (mole fraction)
// return just the number, without any unit appended

// query Tell me the measured solubility (mole fraction) of COc1cc2nc(Cl)nc(N)c2cc1OC , please.
// result 0.0013

---

Details: in n-butanol, 308.15 K
Readout name: solubility (mole fraction)
# answer = number (no unit)

// query Fill in the blank: the reported solubility (mole fraction) of COc1cc2nc(Cl)nc(N)c2cc1OC is ____.
// result 0.000763

---

Details: in cyclohexanone, 288.15 K
Readout name: solubility (mole fraction)
// print number alone

// query Please look up its solubility (mole fraction): COc1cc2nc(Cl)nc(N)c2cc1OC
// result 0.00177

---

Conditions: in NMP, 273.15 K
Readout name: solubility (mole fraction)
Field format: numeric only.

// query solubility (mole fraction) value for entry COc1cc2nc(Cl)nc(N)c2cc1OC
// result 0.00572

---

Conditions: in 1,4-dioxane, 288.15 K
Readout name: solubility (mole fraction)
Reply with the value as a number alone.

// query So what does the record say about solubility (mole fraction) for COc1cc2nc(Cl)nc(N)c2cc1OC ?
// result 0.000108

---

Settings: in methanol, 288.15 K
Readout name: solubility (mole fraction)

// query Could you tell me which solubility (mole fraction) is on file for COc1cc2nc(Cl)nc(N)c2cc1OC ?
// result 0.00021

---

Details: in DMF, 303.15 K
Readout name: solubility (mole fraction)
The response must contain the number and no unit.

// query Which solubility (mole fraction) value is on record for COc1cc2nc(Cl)nc(N)c2cc1OC ?
// result 0.00817

---

Details: in isopropanol, 298.15 K
Readout name: solubility (mole fraction)
Give only the figure.

// query # get_value(readout='solubility (mole fraction)', item= COc1cc2nc(Cl)nc(N)c2cc1OC )
// result 0.000362

---

Conditions: in methanol, 293.15 K
Readout name: solubility (mole fraction)
Simply state the number, no unit and no words.

// query Record request: solubility (mole fraction) value, item COc1cc2nc(Cl)nc(N)c2cc1OC
// result 0.000255

---

Details: in isopropanol, 288.15 K
Readout name: solubility (mole fraction)

// query Endpoint output: solubility (mole fraction) of COc1cc2nc(Cl)nc(N)c2cc1OC . Value?
// result 0.000257

---

Conditions: in ethanol, 293.15 K
Readout name: solubility (mole fraction)

// query Name the reported solubility (mole fraction) value associated with the compound COc1cc2nc(Cl)nc(N)c2cc1OC
// result 0.000359

---

Settings: in toluene, 278.15 K
Readout name: solubility (mole fraction)
// return just the number, without any unit appended

// query What value of solubility (mole fraction) has been recorded for this entry: COc1cc2nc(Cl)nc(N)c2cc1OC
// result 2.7e-06

---

Conditions: in isobutanol, 308.15 K
Readout name: solubility (mole fraction)
Would you mind answering with just the numeric figure?

// query Any idea what solubility (mole fraction) was measured for COc1cc2nc(Cl)nc(N)c2cc1OC ?
// result 0.000706

---

Details: in isobutanol, 298.15 K
Readout name: solubility (mole fraction)
# print the numeric value only

// query Given the compound COc1cc2nc(Cl)nc(N)c2cc1OC , what is its reported solubility (mole fraction)?
// result 0.000514

The measurements presented in this section are drawn from BigSolDB 2.1.
